Listed below: Activity values for each entry.
System: BV-2
assay notes: Antiinflammatory activity in mouse BV-2 cells assessed as inhibition of LPS-induced NO production at 5 uM pretreated for 18 hrs followed by LPS-induction and measured after 6 hrs relative to control
Type: functional
Set-up: scale not given: the % may be the effect or the level left
conditions: time 24 hrs
measured parameter: Activity (%)

cpd_smiles=COc1cccc(-c2noc(-c3cccc4c(=O)c(C)c(-c5ccccc5)oc34)n2)c1 unit_tag=% endpoint_result=22.4
cpd_smiles=Cc1c(-c2ccccc2)oc2c(-c3nc(-c4ccccc4Br)no3)cccc2c1=O unit_tag=% endpoint_result=41.6
cpd_smiles=Cc1c(-c2ccccc2)oc2c(-c3nc(-c4ccc(F)cc4)no3)cccc2c1=O unit_tag=% endpoint_result=41.6
cpd_smiles=Cc1c(-c2ccccc2)oc2c(-c3nc(-c4ccccc4F)no3)cccc2c1=O unit_tag=% endpoint_result=41.6
cpd_smiles=Cc1ccc(-c2noc(-c3cccc4c(=O)c(C)c(-c5ccccc5)oc34)n2)cc1 unit_tag=% endpoint_result=22.4
cpd_smiles=Cc1c(-c2ccccc2)oc2c(-c3nc(-c4ccccc4)no3)cccc2c1=O unit_tag=% endpoint_result=22.4
cpd_smiles=Cc1cccc(-c2noc(-c3cccc4c(=O)c(C)c(-c5ccccc5)oc34)n2)c1 unit_tag=% endpoint_result=64.2
cpd_smiles=COc1ccccc1-c1noc(-c2cccc3c(=O)c(C)c(-c4ccccc4)oc23)n1 unit_tag=% endpoint_result=41.6
cpd_smiles=Cc1ccccc1-c1noc(-c2cccc3c(=O)c(C)c(-c4ccccc4)oc23)n1 unit_tag=% endpoint_result=22.4
cpd_smiles=Cc1c(-c2ccccc2)oc2c(-c3nc(-c4ccc(Br)cc4)no3)cccc2c1=O unit_tag=% endpoint_result=41.6
cpd_smiles=Cc1c(-c2ccccc2)oc2c(-c3nc(-c4cccc(F)c4)no3)cccc2c1=O unit_tag=% endpoint_result=22.4
cpd_smiles=COc1ccc(-c2noc(-c3cccc4c(=O)c(C)c(-c5ccccc5)oc34)n2)cc1 unit_tag=% endpoint_result=22.4
cpd_smiles=Cc1c(-c2ccccc2)oc2c(-c3nc(-c4cccc(Br)c4)no3)cccc2c1=O unit_tag=% endpoint_result=41.6
cpd_smiles=CCc1ccc(-c2noc(-c3cccc4c(=O)c(C)c(-c5ccccc5)oc34)n2)cc1 unit_tag=% endpoint_result=41.6
